System Tested: hNPY2R (Homo sapiens, UniProt P49146)
Construct: expressed in transfected cells; host or cells: HEK-293 cells carrying a CRE-luciferase reporter gene
Sequence (P49146 whole entry): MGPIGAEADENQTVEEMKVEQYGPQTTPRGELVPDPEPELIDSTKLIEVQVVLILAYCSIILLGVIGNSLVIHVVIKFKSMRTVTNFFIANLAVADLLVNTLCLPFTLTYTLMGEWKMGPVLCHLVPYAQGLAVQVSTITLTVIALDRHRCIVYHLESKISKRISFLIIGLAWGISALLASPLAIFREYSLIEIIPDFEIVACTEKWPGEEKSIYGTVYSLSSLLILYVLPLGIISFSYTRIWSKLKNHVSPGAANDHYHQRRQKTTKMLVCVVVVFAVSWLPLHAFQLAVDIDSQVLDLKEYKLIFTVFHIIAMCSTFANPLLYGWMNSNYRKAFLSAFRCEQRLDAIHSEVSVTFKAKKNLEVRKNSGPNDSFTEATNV
Test Protocol: hNPY2R CreLuc reporter gene assay in 0.5% and 100% plasma
Assay type: cell-based
Run Conditions: CreLuc reporter gene assay, 0.5% human plasma; read-out: hNPY2R 0.5% hP
Starred links: 1 amine or outer side, 2 acyl side, 3 side chain; linkers in the order of their positions; H or OH if unused. Positions of bridges follow the written chain, without caps; N, C: chain ends. Non-standard residues stand in square brackets, D forms with d. Groups on a side chain read outwards from the residue. Chains are numbered I, II in the order given. *: point of attachment. C20 diacid = O=C(O)CCCCCCCCCCCCCCCCCCC(=O)*; C18 diacid = O=C(O)CCCCCCCCCCCCCCCCC(=O)*; γGlu = O=C(O)[C@H](CCC(=O)[*:2])N[*:1]; εLys = N[C@@H](CCCCN[*:1])C(=O)[*:2]; Aib = CC(C)(N)C(=O)O
What EC50 was measured for each of the following?
One number for each entry, in nM.

The examples below pair each entry with its known result.
H-Y[Aib]EGTFTSDYSI[Aib]LEKQAE[Aib]AFVQWLIK([εLys-γGlu-γGlu-γGlu-γGlu-γGlu-γGlu-C18 diacid])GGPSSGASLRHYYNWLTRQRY-NH2 [Compound 51]    13.7
I: H-Y[Aib]EGTFTSDYSI[Aib]LEKQAQ[Aib]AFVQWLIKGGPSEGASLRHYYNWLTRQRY-NH2 / II: {C18 diacid}-EEEEEE (amide I:28-II:C) [Compound 264]    16.7

Okay, now this substance:
[Q] Which EC50 is reported for this substance? H-Y[Aib]EGTFTSDYSI[Aib]LEKQAQ[Aib]AFVEWLIK([εLys-γGlu-γGlu-γGlu-γGlu-γGlu-γGlu-C20 diacid])GGPSSYESLRHYYNWLTRQRY-NH2 [Compound 50]
[A] 11.8
